Molecular target: TLR7 (Homo sapiens, UniProt Q9NYK1)
Construct: lymphocytes, monocytes and dendritic cells that express TLR7, TLR8 and TLR9; endogenous in cells; host or cells: cryopreserved human PBMCs from healthy donors
Sequence (Q9NYK1 27-1049): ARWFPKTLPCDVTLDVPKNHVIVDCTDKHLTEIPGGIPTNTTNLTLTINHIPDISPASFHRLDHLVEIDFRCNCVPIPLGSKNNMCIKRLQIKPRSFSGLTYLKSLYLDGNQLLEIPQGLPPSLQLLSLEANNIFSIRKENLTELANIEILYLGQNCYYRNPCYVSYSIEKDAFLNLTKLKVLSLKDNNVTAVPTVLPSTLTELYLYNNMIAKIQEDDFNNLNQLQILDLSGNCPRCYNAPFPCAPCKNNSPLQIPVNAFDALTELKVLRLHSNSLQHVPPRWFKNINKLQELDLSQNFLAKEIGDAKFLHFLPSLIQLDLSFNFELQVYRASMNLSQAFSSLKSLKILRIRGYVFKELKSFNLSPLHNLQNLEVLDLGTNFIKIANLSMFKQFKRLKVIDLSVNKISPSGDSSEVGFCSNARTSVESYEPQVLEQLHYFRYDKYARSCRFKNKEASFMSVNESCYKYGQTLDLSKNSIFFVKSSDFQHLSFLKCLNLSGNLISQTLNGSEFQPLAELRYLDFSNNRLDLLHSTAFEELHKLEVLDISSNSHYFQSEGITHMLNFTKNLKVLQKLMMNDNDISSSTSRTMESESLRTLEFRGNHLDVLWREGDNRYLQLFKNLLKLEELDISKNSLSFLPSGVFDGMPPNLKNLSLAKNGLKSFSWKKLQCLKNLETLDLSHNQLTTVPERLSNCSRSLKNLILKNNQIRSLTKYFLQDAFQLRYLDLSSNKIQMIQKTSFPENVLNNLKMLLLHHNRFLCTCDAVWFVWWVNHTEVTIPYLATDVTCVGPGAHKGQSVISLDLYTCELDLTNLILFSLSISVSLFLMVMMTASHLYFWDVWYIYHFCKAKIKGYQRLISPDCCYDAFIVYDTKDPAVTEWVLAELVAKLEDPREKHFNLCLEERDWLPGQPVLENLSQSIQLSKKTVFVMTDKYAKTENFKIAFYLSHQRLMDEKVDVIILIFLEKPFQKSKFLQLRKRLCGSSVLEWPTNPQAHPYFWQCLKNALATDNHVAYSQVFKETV
Assay: Human PBMC cell-based assay, TLR7 agonist stimulation
Conditions: human PBMCs; TLR7 agonist GS-986 400 nM; 6 hours; cytokines (IL-6 and IFNα) in supernatant; Table 2; read-out: TLR-7 EC50
From the text: Human Peripheral Blood Mononuclear Cell (PBMC) Cell-Based Assay Human peripheral blood mononuclear cells (PBMCs) consist of lymphocytes, monocytes and dendritic cells that express TLR7, TLR8 and TLR9. These cells respond to TLR7, TLR8 and TLR9 ligand stimulation and produce cytokines and chemokines in vitro and in vivo. Human PBMCs are therefore suitable to be used in a cell-based assay to assess the in vitro potency of a TLR 7, 8, and/or 9 antagonist. […]
Property Label: EC50 (µM)
Numeric only. Scale: µM

Use these answered entries as a reference point.
Cc1cc(-c2ccc3c(C)c(-c4ccc(C(=O)N5CCNCC5)cc4)[nH]c3c2)cc(C)n1 | 0.127
Cc1cc(-c2ccc3c(C)c(-c4cnc5c(c4)CNCC5)[nH]c3c2)cc(C)n1 | 0.0679
COc1ccc(-c2ccc3c(C)c(-c4ccc(N5CCNCC5)nc4)[nH]c3c2)cc1OC | 0.0588
Cc1cc(-c2cnc3c(C)c(-c4ccc(N5CCNCC5)nc4)[nH]c3c2)cc(C)n1 | 0.0147
Cc1noc(C)c1-c1ccc2c(C)c(-c3ccc(N4CCNCC4)nc3)[nH]c2c1 | 0.442

Param item = "Cc1c(-c2ccc(N3CCNCC3)nc2)[nH]c2cc(-c3cc(C)c4ncnn4c3)ccc12" ; retrieve measured EC50.
0.0014

Now consider "CCc1c(-c2cnc(N3CCNCC3)nc2)[nH]c2cc(-c3cc(C)nc(C)c3)ccc12" .
0.0062

Same read-out for "Cc1cc(-c2ccc3c(C)c(-c4cccc(C(=O)N5CCNCC5)c4)[nH]c3c2)cc(C)n1" ?
0.0666

What do you get for "Cc1cc(-c2ccc3c(C)c(C4=CCNCC4)[nH]c3c2)cc(C)n1" ?
0.686

Moving on to "CCc1c(-c2ccc(N3CCNCC3)nc2)[nH]c2cc(-c3cc(C)c4ncnn4c3)ccc12"
0.0005

And then "Cc1cc(-c2ccc3c(C)c(-c4ccc(S(=O)(=O)N5CCNCC5)cc4)[nH]c3c2)cc(C)n1" , what is it?
0.509

Now this one: "Cc1cc(-c2ccc3c(C)c(-c4ccc(N5CCNCC5)nc4)[nH]c3c2)ccn1"
0.0044

Next record, please: "Cc1cc(-c2ccc3c(C)c(-c4cccc(C(=O)N[C@@H]5CCNC5)c4)[nH]c3c2)cc(C)n1"
0.193

###

Target: cloned hERG potassium channel (Homo sapiens)
Sequence (Q12809 whole entry): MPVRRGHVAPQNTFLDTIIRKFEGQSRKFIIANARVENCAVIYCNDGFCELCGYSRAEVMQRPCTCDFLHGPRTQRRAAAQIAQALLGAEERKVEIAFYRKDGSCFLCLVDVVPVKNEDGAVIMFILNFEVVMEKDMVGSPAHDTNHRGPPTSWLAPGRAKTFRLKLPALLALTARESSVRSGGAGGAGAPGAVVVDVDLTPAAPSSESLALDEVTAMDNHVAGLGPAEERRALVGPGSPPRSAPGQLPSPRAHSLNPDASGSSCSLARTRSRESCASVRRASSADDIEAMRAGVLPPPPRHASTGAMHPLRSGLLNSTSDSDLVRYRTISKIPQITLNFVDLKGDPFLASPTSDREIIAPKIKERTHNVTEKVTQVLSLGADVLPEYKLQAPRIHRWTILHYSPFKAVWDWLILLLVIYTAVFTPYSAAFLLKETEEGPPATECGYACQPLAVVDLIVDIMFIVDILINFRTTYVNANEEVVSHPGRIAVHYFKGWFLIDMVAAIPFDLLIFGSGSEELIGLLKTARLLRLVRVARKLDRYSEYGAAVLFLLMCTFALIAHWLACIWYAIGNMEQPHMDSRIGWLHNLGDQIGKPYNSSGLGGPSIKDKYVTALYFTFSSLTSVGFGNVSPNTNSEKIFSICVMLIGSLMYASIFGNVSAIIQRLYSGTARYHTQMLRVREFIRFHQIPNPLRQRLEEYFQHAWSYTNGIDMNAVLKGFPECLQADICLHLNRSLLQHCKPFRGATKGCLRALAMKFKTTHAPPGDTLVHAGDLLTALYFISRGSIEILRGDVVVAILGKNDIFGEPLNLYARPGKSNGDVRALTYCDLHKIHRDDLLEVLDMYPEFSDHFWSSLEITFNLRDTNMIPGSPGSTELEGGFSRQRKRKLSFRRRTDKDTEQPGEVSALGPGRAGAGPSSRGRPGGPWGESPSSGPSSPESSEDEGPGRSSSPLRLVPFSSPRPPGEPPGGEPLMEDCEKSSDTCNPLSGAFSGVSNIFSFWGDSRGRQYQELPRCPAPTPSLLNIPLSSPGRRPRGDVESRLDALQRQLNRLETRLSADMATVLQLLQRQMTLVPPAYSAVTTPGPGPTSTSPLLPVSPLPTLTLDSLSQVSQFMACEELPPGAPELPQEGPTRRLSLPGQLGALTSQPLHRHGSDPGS
Experiment: hERG FASTPatch assay (QPatch patch clamp)
Details: hERG stably expressed in cells; 1, 3, 10 and 30 uM; room temperature; Table 3
Experimental: Human Ether-à-go-go-Related Gene (hERG) Assay The FASTPatch® Assay (Charles River) was used to examine the in vitro effects of the compounds provided herein on the cloned hERG potassium channel encoded by the KCNHI2 gene and stably expressed in ITEK293T cells. […] Onset and block of hERG current was measured using a stimulus voltage pattern consisting of a 500 ms prepulse to −40 mV, a 2-second activating pulse to +40 mV, followed by a 2-second test pulse to −40 mV. […]
Catalogue of pIC50 readings, one per entry.
Reminder that pIC50 means the negative base-10 logarithm of the concentration expressed in mol/L.

Cc1cc(-c2[nH]c3ccc(-c4ccc(N5CCNCC5)nc4)cc3c2C(C)C)cn2ncnc12 [Example B, reference compound] | 5.29
Cc1cc(-c2[nH]c3ccc(-c4ccc(N5CCNCC5)nc4)cc3c2C(C)C)cc(C)n1 [Example A, reference compound] | 5.35
Cc1c(-c2ccc(N3CCNCC3)nc2)[nH]c2cc(-c3cc(C)c4ncnn4c3)ccc12 | 4.81

Next compound, pIC50 to be filled in.
Recorded pIC50 of "Cc1cc(-c2ccc3c(C)c(-c4ccc(N5CCNCC5)nc4)[nH]c3c2)cc(C)n1" , please.
5.15

###

biological target: TLR7 (Homo sapiens); construct: lymphocytes, monocytes and dendritic cells that express TLR7, TLR8 and TLR9; endogenous in cells; host or cells: cryopreserved human PBMCs from healthy donors; assay: Human PBMC cell-based assay, TLR7 agonist stimulation; conditions: human PBMCs; same protocol as Example A; Table 3 comparison; read-out: TLR-7 EC50
// reported pEC50 per item
Friendly reminder that pEC50 comes from taking -log10 of the concentration in mol/L.

Cc1cc(-c2[nH]c3ccc(-c4ccc(N5CCNCC5)nc4)cc3c2C(C)C)cn2ncnc12 [Example B, reference compound] | 9.30

We now examine a further compound.
Tell me the measured pEC50 of Cc1cc(-c2[nH]c3ccc(-c4ccc(N5CCNCC5)nc4)cc3c2C(C)C)cc(C)n1 [Example A, reference compound] , please.
8.41

###

target: TLR7 (Homo sapiens, UniProt Q9NYK1); construct: lymphocytes, monocytes and dendritic cells that express TLR7, TLR8 and TLR9; endogenous in cells; host or cells: cryopreserved human PBMCs from healthy donors; assay: Human PBMC cell-based assay, TLR7 agonist stimulation; conditions: human PBMCs; TLR7 agonist GS-986 400 nM; 6 hours; cytokines (IL-6 and IFNα) in supernatant; Table 2; read-out: TLR-7 EC50
pEC50: −log10 of the molar value.
// FALSE strictly below 8 in pEC50; TRUE otherwise

Decide: pEC50 of "Cc1c(-c2cnc(N3CCNCC3)nc2)[nH]c2cc(-c3cc(C)c4ncnn4c3)ccc12" >= 8?
TRUE

Query "CCN1CCC(c2[nH]c3cc(-c4cc(C)nc(C)c4)ccc3c2C)CC1" next
FALSE

Please give the result for "Cc1c(-c2ccc(N3CCNCC3)nc2)[nH]c2cc(-c3cn[nH]c3)ccc12" too.
FALSE

Entry "Cc1c(-c2ccc(N3CCNCC3)nc2)[nH]c2cc(-c3ccnc4ccccc34)ccc12" please
FALSE

Here is the next molecule: "Cc1cc(-c2ccc3c(C)c(C4CCN(C(=O)c5cccnc5)CC4)[nH]c3c2)cc(C)n1"
FALSE

###

# log10(EC50) per record follows
Biological target: TLR9 (Homo sapiens)
Construct: lymphocytes, monocytes and dendritic cells that express TLR7, TLR8 and TLR9; endogenous in cells; host or cells: cryopreserved human PBMCs from healthy donors
Sequence (Q9NR96 26-1032): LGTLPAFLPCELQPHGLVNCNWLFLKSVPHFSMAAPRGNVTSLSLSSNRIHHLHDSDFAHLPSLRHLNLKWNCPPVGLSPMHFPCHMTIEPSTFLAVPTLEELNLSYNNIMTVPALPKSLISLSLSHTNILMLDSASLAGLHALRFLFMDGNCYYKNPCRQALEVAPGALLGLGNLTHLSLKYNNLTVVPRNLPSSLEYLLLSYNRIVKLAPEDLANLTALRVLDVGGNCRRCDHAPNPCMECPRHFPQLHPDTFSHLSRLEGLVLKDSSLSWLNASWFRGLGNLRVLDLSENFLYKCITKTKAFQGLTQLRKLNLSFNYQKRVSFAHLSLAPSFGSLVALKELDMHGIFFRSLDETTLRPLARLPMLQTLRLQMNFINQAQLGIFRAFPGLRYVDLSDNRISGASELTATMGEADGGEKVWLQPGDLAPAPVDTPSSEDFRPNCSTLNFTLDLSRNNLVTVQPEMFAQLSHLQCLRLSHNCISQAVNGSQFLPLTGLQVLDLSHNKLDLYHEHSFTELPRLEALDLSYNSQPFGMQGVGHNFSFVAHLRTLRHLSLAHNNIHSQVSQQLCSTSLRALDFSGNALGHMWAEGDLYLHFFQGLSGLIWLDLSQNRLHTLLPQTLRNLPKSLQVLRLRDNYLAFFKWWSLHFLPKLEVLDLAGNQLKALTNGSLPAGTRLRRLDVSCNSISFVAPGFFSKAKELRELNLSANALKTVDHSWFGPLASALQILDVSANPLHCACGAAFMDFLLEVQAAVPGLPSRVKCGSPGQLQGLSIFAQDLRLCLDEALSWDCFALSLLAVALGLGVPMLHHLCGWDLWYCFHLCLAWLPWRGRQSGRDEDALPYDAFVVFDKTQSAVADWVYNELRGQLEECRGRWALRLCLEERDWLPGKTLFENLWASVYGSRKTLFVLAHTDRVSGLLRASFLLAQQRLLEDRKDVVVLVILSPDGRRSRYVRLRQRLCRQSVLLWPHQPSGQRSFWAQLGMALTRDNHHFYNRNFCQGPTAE
Assay: Human PBMC cell-based assay, TLR9 agonist stimulation
Conditions: human PBMCs; TLR9 agonist ODN-2216 3 μM; 6 hours; cytokines (IL-6 and IFNα) in supernatant; Table 2; read-out: TLR-9 EC50
The base-10 logarithm of EC50, taken with EC50 in nM, is what appears here.

Some compounds with recorded log10(EC50):
CCc1c(-c2ccc(N3CCNCC3)nc2)[nH]c2cc(-c3cc(C)c4ncnn4c3)ccc12 | 2.48
Cc1cc(-c2ccc3c(C)c(-c4cnc5c(c4)CNCC5)[nH]c3c2)cc(C)n1 | 1.45

# input compound: "COc1ccc(-c2ccc3c(C)c(-c4ccc(N5CCNCC5)nc4)[nH]c3c2)cc1OC" ; wanted: its log10(EC50)
2.71

What about this compound? "Cc1cc(-c2ccc3c(C)c(-c4ccc(S(=O)(=O)N5CCNCC5)cc4)[nH]c3c2)cc(C)n1"
2.31

Note, next up: "Cc1c(-c2ccc(N3CCNCC3)nc2)[nH]c2cc(-c3ccc(C#N)c4ncccc34)ccc12"
2.71
